target: T1, human TSH receptor (full length), coated on tubes (human, UniProt P16473 22-764); assay: inhibition of 125I-K1-70 Fab (competitor) binding to TSHR coated tubes; 0.03 µg/mL in HBD serum pool
T1 construct: TSHR coated tubes as described in WO2004/050708A2; The receptor is full length and held on plastic tubes through a mouse MAb to the TSHR; also called thyroid stimulating hormone receptor
quantity: Inhibition of binding (%)
Lab book: enter the figure in %, no units written.

Completed entries (count: 3):
(Q) Read off the recorded Inhibition of binding (%) for K1-70 Fab (Fab, V domains shown) VH: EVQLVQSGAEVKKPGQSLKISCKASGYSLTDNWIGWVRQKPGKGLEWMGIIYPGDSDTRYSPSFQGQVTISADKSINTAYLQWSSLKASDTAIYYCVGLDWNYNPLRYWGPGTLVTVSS VL: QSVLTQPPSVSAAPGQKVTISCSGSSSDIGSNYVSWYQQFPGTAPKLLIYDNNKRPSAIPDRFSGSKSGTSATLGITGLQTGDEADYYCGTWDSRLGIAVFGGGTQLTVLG
(A) 57.2

(Q) Read off the recorded Inhibition of binding (%) for K1-70 IgG (antibody, V domains shown, Human IgG1 lambda purified from hetero-hybridoma supernatant; also called human monoclonal autoantibody to the TSHR with TSH antagonist activity) VH: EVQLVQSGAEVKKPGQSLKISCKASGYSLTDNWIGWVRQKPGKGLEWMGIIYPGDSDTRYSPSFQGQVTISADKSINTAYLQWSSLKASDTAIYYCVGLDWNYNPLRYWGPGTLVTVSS VL: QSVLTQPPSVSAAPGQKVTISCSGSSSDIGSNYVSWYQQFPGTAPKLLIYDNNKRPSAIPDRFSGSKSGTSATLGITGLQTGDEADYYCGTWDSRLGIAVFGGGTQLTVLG
(A) 37.8

(Q) Read off the recorded Inhibition of binding (%) for K1-18 IgG (antibody, V domains shown, Human IgG1 kappa purified from hetero-hybridoma supernatant; also called human monoclonal autoantibody to the TSHR with TSH agonist activity) VH: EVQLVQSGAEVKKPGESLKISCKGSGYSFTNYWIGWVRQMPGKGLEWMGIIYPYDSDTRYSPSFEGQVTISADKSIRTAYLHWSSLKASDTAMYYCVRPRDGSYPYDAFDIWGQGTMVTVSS VL: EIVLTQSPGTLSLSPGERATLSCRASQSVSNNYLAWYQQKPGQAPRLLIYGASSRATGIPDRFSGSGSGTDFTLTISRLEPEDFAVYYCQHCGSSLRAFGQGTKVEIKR
(A) 17.2

Proceeding to the next binder to report its Inhibition of binding (%).
(Q) Read off the recorded Inhibition of binding (%) for K1-18 Fab (Fab, V domains shown) VH: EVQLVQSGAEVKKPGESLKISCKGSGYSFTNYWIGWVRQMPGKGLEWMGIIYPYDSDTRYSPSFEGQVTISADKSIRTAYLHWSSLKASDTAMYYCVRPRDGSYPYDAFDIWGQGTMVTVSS VL: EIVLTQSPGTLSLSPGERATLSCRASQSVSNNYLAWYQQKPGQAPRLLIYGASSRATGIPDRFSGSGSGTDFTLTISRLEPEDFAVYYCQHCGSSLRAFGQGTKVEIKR
(A) 7.9
